For each of the molecules below, state its % recovery of TH-stained dopaminergic neurons at 10 mg/kg.
Tested on: TH-stained dopaminergic neurons
ASSAY: MPTP Model of Parkinson's Disease
Assay type: in vivo
MEASUREMENT_PARAMETERS: Mus musculus, Neuron, po; MPTP-lesioned CD1 mice, 10 mg/kg p.o.; read-out: % TH recov 10 mg/kg p.o.
Please don't drop the unit; write it after the number.

Exam item: Using the record for CCC(C)(C)C(=O)C(=O)N1CCCN1C(=O)CCCCc1cccnc1 [Compound 7] , state its measured % recovery of TH-stained dopaminergic neurons at 10 mg/kg.
Marked response: 57%

Exam item: Using the record for CCC(C)(C)C(=O)C(=O)N1CCCCN1C(=O)CCCCCc1ccccc1 [Compound 12] , state its measured % recovery of TH-stained dopaminergic neurons at 10 mg/kg.
Marked response: 35%

Exam item: Using the record for CCC(C)(C)C(=O)C(=O)N1CCCN1C(=O)CCC#Cc1cccnc1 [Compound 3] , state its measured % recovery of TH-stained dopaminergic neurons at 10 mg/kg.
Marked response: 26%

Exam item: Using the record for O=C(OCCCCc1ccccc1)N1CCCCN1S(=O)(=O)Cc1ccccc1 [Compound 106] , state its measured % recovery of TH-stained dopaminergic neurons at 10 mg/kg.
Marked response: 23%

Exam item: Using the record for CCC(C)(C)C(=O)C(=O)N1CCCN1C(=O)CCc1ccccc1 [Compound 2] , state its measured % recovery of TH-stained dopaminergic neurons at 10 mg/kg.
Marked response: 10%

Exam item: Using the record for CCC(C)(C)C(=O)C(=O)N1CCCCN1C(=O)OCCCCc1cccnc1 [Compound 17] , state its measured % recovery of TH-stained dopaminergic neurons at 10 mg/kg.
Marked response: 38%

Exam item: Using the record for CCC(C)(C)C(=O)C(=O)N1CCCN1C(=O)CCCCCc1ccccc1 [Compound 6] , state its measured % recovery of TH-stained dopaminergic neurons at 10 mg/kg.
Marked response: 32%

Exam item: Using the record for CCC(C)(C)C(=O)C(=O)N1CCCN1C(=O)CCCc1ccccc1 [Compound 5] , state its measured % recovery of TH-stained dopaminergic neurons at 10 mg/kg.
Marked response: 4%

Exam item: Using the record for CCC(C)(C)C(=O)C(=O)N1CCCCN1C(=O)OCCCCc1ccccc1 [Compound 15] , state its measured % recovery of TH-stained dopaminergic neurons at 10 mg/kg.
Marked response: 21%

Exam item: Using the record for CCC(C)(C)C(=O)C(=O)N1CCCCN1C(=O)CCCCCc1cccnc1 [Compound 13] , state its measured % recovery of TH-stained dopaminergic neurons at 10 mg/kg.
Marked response: 18%

Exam item: Using the record for CCC(C)(C)C(=O)C(=O)N1CCCCN1C(=O)OCCCCCc1ccccc1 [Compound 16] , state its measured % recovery of TH-stained dopaminergic neurons at 10 mg/kg.
Marked response: 49%

Exam item: Using the record for O=C(NC1CCCCC1)N1CCCCN1C(=O)OCCCCc1ccccc1 [Compound 154] , state its measured % recovery of TH-stained dopaminergic neurons at 10 mg/kg.
Marked response: 46%

Exam item: Using the record for CCC(C)(C)C(=O)C(=O)N1CCCCN1C(=O)CCCCc1ccccc1 [Compound 18] , state its measured % recovery of TH-stained dopaminergic neurons at 10 mg/kg.
Marked response: 18%
